Measured IC50, listed per entry for reference.
system tested: Kdr (Homo sapiens, UniProt P35968)
Construct: Kinases are expressed as either kinase domains or full length constructs; made in house
Sequence (P35968 20-1356, species assumed): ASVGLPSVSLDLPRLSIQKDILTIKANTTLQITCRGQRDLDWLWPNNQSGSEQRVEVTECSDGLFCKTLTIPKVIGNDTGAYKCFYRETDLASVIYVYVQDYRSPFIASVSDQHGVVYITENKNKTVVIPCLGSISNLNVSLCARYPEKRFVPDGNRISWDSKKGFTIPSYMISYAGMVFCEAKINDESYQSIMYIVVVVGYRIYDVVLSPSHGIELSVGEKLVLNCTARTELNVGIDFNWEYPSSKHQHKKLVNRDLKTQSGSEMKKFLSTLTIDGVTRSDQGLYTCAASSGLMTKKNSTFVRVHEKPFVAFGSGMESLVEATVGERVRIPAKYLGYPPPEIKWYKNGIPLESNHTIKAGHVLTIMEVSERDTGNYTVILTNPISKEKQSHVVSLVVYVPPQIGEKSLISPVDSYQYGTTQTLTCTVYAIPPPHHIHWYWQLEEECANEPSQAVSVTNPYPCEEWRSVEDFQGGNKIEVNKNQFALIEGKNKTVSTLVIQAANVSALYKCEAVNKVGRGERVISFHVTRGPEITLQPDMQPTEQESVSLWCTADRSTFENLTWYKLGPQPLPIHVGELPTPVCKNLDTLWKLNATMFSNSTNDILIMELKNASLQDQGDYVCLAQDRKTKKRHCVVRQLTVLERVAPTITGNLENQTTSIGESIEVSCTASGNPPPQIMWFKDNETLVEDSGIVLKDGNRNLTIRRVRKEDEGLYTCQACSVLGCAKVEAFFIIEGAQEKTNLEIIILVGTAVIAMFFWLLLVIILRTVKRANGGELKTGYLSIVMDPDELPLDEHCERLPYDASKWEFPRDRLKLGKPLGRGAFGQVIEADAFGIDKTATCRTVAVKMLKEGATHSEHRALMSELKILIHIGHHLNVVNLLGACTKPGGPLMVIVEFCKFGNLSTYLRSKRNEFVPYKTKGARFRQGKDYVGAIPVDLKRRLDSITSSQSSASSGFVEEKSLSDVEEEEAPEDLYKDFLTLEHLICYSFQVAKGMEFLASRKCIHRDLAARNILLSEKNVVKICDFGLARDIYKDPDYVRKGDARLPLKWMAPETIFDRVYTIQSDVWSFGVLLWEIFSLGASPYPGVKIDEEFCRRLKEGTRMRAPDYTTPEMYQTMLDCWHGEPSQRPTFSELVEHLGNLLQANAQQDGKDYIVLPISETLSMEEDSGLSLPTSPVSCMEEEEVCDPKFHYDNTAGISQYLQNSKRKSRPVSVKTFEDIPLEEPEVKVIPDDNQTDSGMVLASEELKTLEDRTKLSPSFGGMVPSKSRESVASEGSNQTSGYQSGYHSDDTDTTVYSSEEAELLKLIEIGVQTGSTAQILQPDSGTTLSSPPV
experiment summary: Kinase inhibition assay (33P transfer), Kdr
Type: biochemical
condition label: Table 3; read-out: KDR-1

Worked set:
# compound, IC50
records = [
    ("COc1cc(Nc2ncnc(Nc3[nH]ncc3-c3cccs3)n2)cc(OC)c1OC [Compound 368]", "> 10600 nM"),
    ("COc1cc(Nc2ncnc(Nc3cc(OC)c(OC)c(OC)c3)n2)cc(OC)c1 [Compound 86]", "< 968 nM"),
    ("COc1cc(Nc2ncnc(-n3c(Nc4ccc(C(C)C)cc4)nc4ccccc43)n2)cc(OC)c1OC [Compound 388]", "782 to 4690 nM"),
    ("Nc1ncnc(Nc2nc(-c3ccc(Cl)cc3)cs2)n1 [Compound 1016]", "> 14800 nM"),
    ("NC(=O)c1cccc(Nc2ncnc(-c3cccs3)n2)c1 [Compound 358]", "> 15100 nM"),
]

I am curious: what IC50 value has been reported for COc1cc(Nc2ncnc(Nc3ccc4[nH]ccc4c3)n2)cc(OC)c1OC [Compound 928] ? < 1020 nM

Further, for NC(=O)c1ccc(Nc2ncnc(-n3c(=O)[nH]c4ccccc43)n2)cc1 [Compound 419] ? 1150 to 6910 nM

Note, next up: COc1cc(Nc2ncnc(-n3c(Nc4cc(C)n[nH]4)nc4ccccc43)n2)cc(OC)c1OC [Compound 401] < 845 nM
